- Target System: cloned human delta opioid receptor (Homo sapiens)
- Construct: expressed in transfected cells
- Sequence (P41143 whole entry): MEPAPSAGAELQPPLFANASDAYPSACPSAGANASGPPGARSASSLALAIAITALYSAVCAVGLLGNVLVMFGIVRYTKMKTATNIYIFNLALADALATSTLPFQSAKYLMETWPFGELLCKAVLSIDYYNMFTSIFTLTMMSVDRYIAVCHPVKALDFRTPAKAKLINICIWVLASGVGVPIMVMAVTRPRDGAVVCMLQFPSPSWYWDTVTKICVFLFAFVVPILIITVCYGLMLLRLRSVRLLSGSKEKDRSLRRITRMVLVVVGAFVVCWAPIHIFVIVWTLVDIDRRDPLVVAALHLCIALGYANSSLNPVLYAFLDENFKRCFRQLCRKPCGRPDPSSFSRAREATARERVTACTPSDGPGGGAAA
- Experiment Summary: GTP-γ-S binding assay, antagonist mode (delta)
- Format: biochemical
- Test Conditions: functional antagonist potency vs DPDPE 30 nM; membranes, [35S]GTP-γ-S SPA; Cheng-Prusoff
Quantity: Kb

Completed entries (count: 3):
{"Compound String": "CC(C)CCNCc1ccc(OCc2cccc(C(N)=O)c2)cc1", "Target System": "cloned human delta opioid receptor (Homo sapiens)", "Kb": "> 41 nM"}
{"Compound String": "CC(C)CCNCc1ccc(COc2ccc(C(N)=O)cc2)cc1", "Target System": "cloned human delta opioid receptor (Homo sapiens)", "Kb": "> 67 nM"}
{"Compound String": "CC(C)CCNCc1ccc(OCCc2ccc(C(N)=O)cc2)cc1", "Target System": "cloned human delta opioid receptor (Homo sapiens)", "Kb": "> 67 nM"}

Given the molecule CC(C)CCNCc1ccc(OCc2ccc(C(N)=O)cc2)cc1 , what is its reported Kb?
337 nM

====

- Target System: cloned human mu opioid receptor (Homo sapiens)
- Construct: expressed in transfected cells
- Sequence (P35372 whole entry): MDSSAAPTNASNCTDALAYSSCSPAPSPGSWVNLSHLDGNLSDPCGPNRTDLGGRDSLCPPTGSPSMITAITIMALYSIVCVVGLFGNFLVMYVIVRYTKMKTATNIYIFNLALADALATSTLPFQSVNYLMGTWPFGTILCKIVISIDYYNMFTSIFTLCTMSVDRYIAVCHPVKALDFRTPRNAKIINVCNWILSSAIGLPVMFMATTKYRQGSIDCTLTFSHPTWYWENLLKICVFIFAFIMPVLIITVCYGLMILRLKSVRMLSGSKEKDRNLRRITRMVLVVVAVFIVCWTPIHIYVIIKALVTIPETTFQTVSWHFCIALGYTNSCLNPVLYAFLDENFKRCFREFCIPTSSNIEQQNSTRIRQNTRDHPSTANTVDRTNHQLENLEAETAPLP
- Experiment Summary: GTP-γ-S binding assay, antagonist mode (mu)
- Assay type: biochemical
- Test Conditions: functional antagonist potency vs DAMGO 1 micromolar; membranes, [35S]GTP-γ-S SPA; Cheng-Prusoff
Attribute: Kb

Given the molecule CC(C)CCNCc1ccc(COc2ccc(C(N)=O)cc2)cc1 , what is its reported Kb?
> 23 nM

Given the molecule CC(C)CCNCc1ccc(OCCc2ccc(C(N)=O)cc2)cc1 , what is its reported Kb?
> 23 nM

Given the molecule CC(C)CCNCc1ccc(OCc2ccc(C(N)=O)cc2)cc1 , what is its reported Kb?
62.9 nM

Given the molecule CC(C)CCNCc1ccc(OCc2cccc(C(N)=O)c2)cc1 , what is its reported Kb?
> 21 nM

The reported numbers originate from patent US7381750B2.
